From: patent US5696159A

Entries annotated with measured IC50
System: HT-29 (human colonic adenocarcinoma) cells
Procedure details: Sulforhodamine B Assay, tumor cell growth inhibition, HT-29
Type: cell-based
Test settings: Homo sapiens, HT-29, read-out: (Anti-proliferative activity) HT-29 I.C.50
Reported metric: IC50 (µM)

>>> number("O=C(O)c1ccccc1O [Salicylic Acid]")
2330
>>> number("CSc1ccc(/C=C2/C(C)=C(CC(=O)O)c3cc(F)ccc32)cc1 [Sulindac Sulfide]")
64

* * *

Tested on: HT-29 (human colonic adenocarcinoma) cells
Procedure details: Sulforhodamine B Assay, tumor cell growth inhibition, HT-29
Assay type: cell-based
Test settings: Homo sapiens; Table II; HT-29 p 136; read-out: IC50, HT-29
Reported metric: IC50

>>> result("C[C@]12OC(=O)C[C@@]1(C#N)c1cc(F)ccc1/C2=C\\c1ccc(S(C)(=O)=O)cc1 (relative stereo) [Example 13]")
"> 50 µM"
